SYSTEM: AMP-activated protein kinase, AMPK (Homo sapiens) (UniProt P54646+O43741+P54619+Q9UGJ0+Q9Y478+Q13131+Q9UGI9)
PROTOCOL_SUMMARY: AMP-dependent Kinase enzyme assay. An in vitro enzyme assay that detects ADP turnover that is directly proportional to AMPK activity. This uses naive AMPK that is activated during the assay with MK-8722
Assay type: functional
Set-up: scale not given: direction of the effect not stated beside the values
MEASUREMENT_PARAMETERS: 30 µM
READOUT: Percent Effect

* Cc1cc(CNC(=O)c2cc(NC(=O)C(C)C)ccc2Cl)no1 | 4.16%
* O=C1CCC(=O)N1CCn1nnc(-c2ccc(Br)cc2)n1 | -9.11%
* O=C(CC1CCCC1)NCCS(=O)(=O)N1CCN(c2ncccn2)CC1 | -1.03%
* O=C(NC1CC1)C1CNCCN1C(=O)CCOc1ccccc1 (stereo unspecified) | 4.98%
* CCc1ccc(CCC(=O)N2CCC(=O)Nc3cccnc32)cc1 | 0.539%
* CNC(=O)NC(=O)CN(Cc1ccc(C#N)cc1)Cc1cccc(F)c1 | -4.48%

* * *

SYSTEM: Tyrosyl-tRNA synthetase, putative (Trypanosoma cruzi (strain CL Brener)) (UniProt Q4DSP6)
Sequence (Q4DSP6 as listed by the source): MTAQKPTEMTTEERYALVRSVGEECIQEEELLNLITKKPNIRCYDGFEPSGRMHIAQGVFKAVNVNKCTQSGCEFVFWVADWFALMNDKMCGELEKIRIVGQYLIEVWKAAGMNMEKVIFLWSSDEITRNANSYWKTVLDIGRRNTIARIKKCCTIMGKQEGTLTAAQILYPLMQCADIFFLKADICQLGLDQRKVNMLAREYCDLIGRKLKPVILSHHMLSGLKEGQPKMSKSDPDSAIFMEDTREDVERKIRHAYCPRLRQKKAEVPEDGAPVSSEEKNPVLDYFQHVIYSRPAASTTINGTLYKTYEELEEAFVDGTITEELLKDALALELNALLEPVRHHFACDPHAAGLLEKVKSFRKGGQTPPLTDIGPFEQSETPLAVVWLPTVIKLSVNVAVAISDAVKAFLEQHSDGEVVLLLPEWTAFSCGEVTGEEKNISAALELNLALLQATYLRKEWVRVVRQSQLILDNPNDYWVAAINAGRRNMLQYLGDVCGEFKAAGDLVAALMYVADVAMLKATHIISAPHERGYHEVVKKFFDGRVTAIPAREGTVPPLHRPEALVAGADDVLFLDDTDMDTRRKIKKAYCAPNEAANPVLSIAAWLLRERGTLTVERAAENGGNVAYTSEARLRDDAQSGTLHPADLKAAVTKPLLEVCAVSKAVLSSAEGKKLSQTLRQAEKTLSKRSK
PROTOCOL_SUMMARY: Trypanosoma cruzi tyrosyl tRNA synthetase (TcYRS) SOP
Format: functional
Set-up: scale not given: direction of the effect not stated beside the values
MEASUREMENT_PARAMETERS: 30 µM
READOUT: Percent Effect (%)

* CCC(=O)N1CCCC1c1nccnc1Nc1nc(C)cc(C)n1 (stereo unspecified) | 7.5
* Cn1cc(CN2CCCC23CCN(C(=O)c2cccn2C)CC3)cn1 | 0
* CCS(=O)(=O)N(C)CC(=O)Nc1ccc(Br)cn1 | 12.8
* O=C(NCc1cc(O)ncn1)C1COc2ccccc2C1 (stereo unspecified) | 17.1
* CCNC(=O)[C@@H]1C[C@@H](NC(=O)Cc2ccncc2)CN1Cc1ccsc1 | 2.44
* O=C(NCC1CC1)C1=NOC2(CCN(S(=O)(=O)c3cccs3)C2)C1 (stereo unspecified) | -2.56

* * *

SYSTEM: AMP-activated protein kinase, AMPK (Homo sapiens) (UniProt P54646+O43741+P54619+Q9UGJ0+Q9Y478+Q13131+Q9UGI9)
PROTOCOL_SUMMARY: AMP-dependent Kinase enzyme assay. An in vitro enzyme assay that detects ADP turnover that is directly proportional to AMPK activity. This uses naive AMPK that is activated during the assay with MK-8722
Assay type: functional
Parameters: scale not given: direction of the effect not stated beside the values
MEASUREMENT_PARAMETERS: 30 µM
READOUT: Percent Effect (%)

• CC(C)Oc1cccc(F)c1C(C(=O)O)N1CCCC1 (configuration not stated) = 8.59
• O=C1CC2(CCCC2)CC(=O)N1CCn1cnnc1 = 5.88
• COc1cc(F)ccc1NC(=O)NC(C)C(=O)NC(C)(C)C (configuration not stated) = -11.6
• CC(C)(N)C(=O)N1CCCC(C(=O)c2ccc(C(C)(C)C)cc2)C1 (configuration not stated) = 17.9
• CC(C)Oc1cc(N2CCN(Cc3ccsc3)C(CCO)C2)nc(N)n1 (configuration not stated) = -13.7
• O=C(NCCc1ccncc1)c1cccc(S(=O)(=O)NC2CC2)c1 = -4.52
• COc1cccc(F)c1CN1CCC(c2nc(C)cc(C)n2)C1 (configuration not stated) = 1.72
• O=C(CC1CCCC1)NCCNCc1cccc2c1OCCO2 = -3.45
• CCOCCC(=O)N(CCC#N)c1ccc(C)c(C)c1 = -0.0952
• O=C(CNc1ccc(OC2CCOC2)cc1)NCc1cccs1 (configuration not stated) = 9.41
• Cc1cc(C)n(CC2CCN(CC(O)COc3ccccc3)CC2)n1 (configuration not stated) = 2.9
• Cc1cnn(C2CN(CCOc3ccccc3C#N)C2)c1 = 6.15

* * *

Test system: Trypanosoma cruzi
PROTOCOL_SUMMARY: Trypanosoma cruzi phosphomannomutase and mannose-1-phosphate guanylyltransferase assay
Type: functional
Set-up: scale not given: direction of the effect not stated beside the values
MEASUREMENT_PARAMETERS: 10 µM
READOUT: Percent Effect (%)

• Cc1cncc(C2CCCN(Cc3cccn3C)C2)n1 (stereo unspecified) = -0.592
• Cc1nn(C)c(N(C)C)c1CNCCNS(C)(=O)=O = 5.54
• CCCc1nc(C)c(C(=O)NCCN2CCN(CC)CC2)s1 = 0.56
• Cc1cccc(CN2C(=O)CCC23CCN(c2ncc(F)cn2)CC3)n1 = -1.13
• O=C(c1ccnnc1)N1C[C@@H](OCC2CCOCC2)[C@H]2OCCC[C@H]21 = 5.55
• CC(O)(CN1CCC2(CC1)OCCO2)c1cccc(C(F)(F)F)c1 (stereo unspecified) = -0.187
• Cc1ncc(-c2ccnc(N3CCCCCC3)n2)c(-c2cccnc2)n1 = -8.03
• Cc1ccc(NC2CCN(C(=O)c3cccc4ncccc34)CC2)nn1 = -0.803
• Cn1nc2c(cc1=O)CN(Cc1nc(C(C)(C)C)no1)CC2 = 1.41
• Cc1ccc(C(=O)N2CCCC3(CCCC(=O)N3C)C2)cc1F (stereo unspecified) = -1.5
• c1ccc(OC2CCCC2)c(CNC2CCc3ncnn3C2)c1 (stereo unspecified) = 5.35

* * *

Quick reference for Percent Effect among some compounds
SYSTEM: Protein translocase subunit SecA (Escherichia coli (strain K12)) (UniProt P10408)
Sequence (P10408 whole entry): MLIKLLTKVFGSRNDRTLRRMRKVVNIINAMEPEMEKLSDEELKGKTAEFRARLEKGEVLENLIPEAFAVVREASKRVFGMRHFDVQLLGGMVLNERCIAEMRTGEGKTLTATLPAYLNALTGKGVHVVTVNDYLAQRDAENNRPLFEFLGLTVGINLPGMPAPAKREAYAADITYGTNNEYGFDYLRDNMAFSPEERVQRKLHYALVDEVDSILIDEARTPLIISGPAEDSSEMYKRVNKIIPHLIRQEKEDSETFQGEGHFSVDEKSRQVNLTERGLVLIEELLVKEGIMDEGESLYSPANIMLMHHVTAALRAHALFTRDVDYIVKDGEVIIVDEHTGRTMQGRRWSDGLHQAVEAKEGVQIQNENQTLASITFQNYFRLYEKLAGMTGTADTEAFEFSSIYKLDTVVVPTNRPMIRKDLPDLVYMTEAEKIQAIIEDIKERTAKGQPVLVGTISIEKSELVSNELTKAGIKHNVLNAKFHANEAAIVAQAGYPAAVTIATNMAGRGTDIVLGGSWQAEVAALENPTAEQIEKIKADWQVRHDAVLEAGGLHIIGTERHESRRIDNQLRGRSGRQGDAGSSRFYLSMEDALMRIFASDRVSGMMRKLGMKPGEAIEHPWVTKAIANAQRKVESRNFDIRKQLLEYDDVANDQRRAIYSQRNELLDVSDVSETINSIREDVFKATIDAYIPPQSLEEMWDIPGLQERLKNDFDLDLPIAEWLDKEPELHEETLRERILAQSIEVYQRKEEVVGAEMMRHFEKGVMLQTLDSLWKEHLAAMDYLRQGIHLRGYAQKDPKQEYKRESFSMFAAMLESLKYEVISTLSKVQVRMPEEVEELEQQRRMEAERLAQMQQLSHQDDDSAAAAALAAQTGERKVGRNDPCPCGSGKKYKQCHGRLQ
PROTOCOL_SUMMARY: Assay to Identify E. coli SecA ATPase Inhibitors
Assay type: functional
Design: scale not given: direction of the effect not stated beside the values
MEASUREMENT_PARAMETERS: 30 µM
Entries with a potency or affinity are not part of this list.
READOUT: Percent Effect (%)

• c1cc(-c2nc(CN3CCn4c(nnc4C4CC4)C3)cs2)cs1 = 0.225
• O=C(CC1CCCC1)N1C[C@@H]2CCN(c3cccnc3)C[C@@H]2C1 = -3.01
• Cn1ccc(C(=O)NCc2cccc(N3CCCCC3=O)c2)cc1=O = 2.38
• Clc1ccccc1-c1nc(CNC2CCc3ncnn3C2)cs1 (centres undefined) = -0.994
• CN(C)S(=O)(=O)N1CC[C@]2(C[C@H](Oc3ncccc3F)CO2)C1 = -1.29
• CCCc1n[nH]cc1C(=O)N1CCC(c2nccn2CCOC)CC1 = -7.31
• Cc1ccc(C(=O)N2C[C@H]3CCC[C@@]3(COCc3cccnc3)C2)s1 = -4.31
• CC(NC(=O)CN(C)S(C)(=O)=O)c1nnc2n1CCCCC2 (centres undefined) = 1.95
• COCC1CN(Cc2ccc(OC)cc2)Cc2nn(C)cc21 (centres undefined) = 0.916
• CC(C)c1cc(NC(=O)CN2CCC(N3CCCCC3)CC2)on1 = -2.28
• CCn1nc2c(cc1=O)CN(Cc1nc(-c3ccsc3)no1)CC2 = -2.79
• O=C(c1cc(Cl)c2c(c1)OCCO2)N1CCCC(n2cncn2)C1 (centres undefined) = -2.53
• Cc1noc(C)c1CN1CCN(Cc2nccn2C)CC1 = -3.95
• O=C1N(CC2CC2)CCC12CCN(c1ncccn1)CC2 = 2.77
• Cc1cc(C)cc(OCC(=O)NC2CCN(S(C)(=O)=O)CC2)c1 = -3.04
• CCNC(=O)[C@@H]1C[C@H](NC(=O)Cc2ccsc2)CN1Cc1ccc(C)o1 = -3.95
• Nc1nccc(-c2c[nH]nc2C2CCCCC2)n1 = 1.44
• CC(C)(C)C(O)CN1CCN(C(=O)c2cccc3[nH]ncc23)CC1 (centres undefined) = -8.1
• Cn1cnc2c1CCN(Cc1cccc(C(N)=O)c1)C2 = -3.09
• Cc1nc(CN(C)C2CCN(CCCOc3ccccc3)C2)no1 (centres undefined) = 0.729
• COCC1CC2(CCN(Cc3ccc(OC)cc3)CC2)CN1C(C)C (centres undefined) = -6.15
• CC(=O)N1C[C@@H](c2ccsc2)[C@@H]2CN(Cc3ccccc3)CC[C@@H]21 = -3.48
• CC(C)CN1CCC2(CCN(Cc3ccsc3)CC2)C1=O = -2.7
• COc1ccc(OCCN(C)C(=O)NC(C)c2nncn2C)cc1 (centres undefined) = -4.39

* * *

Quick reference for Percent Effect among some compounds
SYSTEM: AMP-activated protein kinase, AMPK (Homo sapiens) (UniProt P54646+O43741+P54619+Q9UGJ0+Q9Y478+Q13131+Q9UGI9)
PROTOCOL_SUMMARY: AMP-dependent Kinase enzyme assay. An in vitro enzyme assay that detects ADP turnover that is directly proportional to AMPK activity. This uses naive AMPK that is activated during the assay with MK-8722
Type: functional
Design: scale not given: direction of the effect not stated beside the values
MEASUREMENT_PARAMETERS: 30 µM
READOUT: Percent Effect (%)

* Fc1ccc(N2CCN(CCCc3cn[nH]c3)CC2)cc1 | 3.93
* CCCNC(=O)c1cnc2n1CCCC2 | 0.00547
* COCCCC1(CO)CCCN(C(=O)c2cnc(C3CC3)nc2)C1 (stereo not drawn) | 2.98
* O=C(CCn1cc(Cl)cn1)N1CCCC(O)(CO)CC1 (stereo not drawn) | -3.36
* Cc1nn(C)c(C)c1C1CCCN1C(=O)c1ccc(C(N)=O)s1 (stereo not drawn) | -0.19
* CCCC1COCCN1Cc1ccc(NC(C)=O)cc1 (stereo not drawn) | -4.72
* Cc1ccc2c(C(=O)N(C)C)cc(-c3cnn(CCO)c3)nc2c1C | 7.33
* CS(=O)(=O)NC1CCN(Cc2coc(-c3ccccc3)n2)CC1 | 0.161
* CCn1cnnc1CN(C)C(=O)c1cc(COc2cccc(F)c2)[nH]n1 | -0.905
* COCCN(CC(F)F)c1cc(COC)nc2ncnn12 | 0.272
* Cc1ncoc1C(=O)N1CCCC(c2ccc3c(N)nn(C)c3n2)C1 (stereo not drawn) | 11.4
* NC(=O)CN(Cc1ncc(-c2ccc(F)cc2)o1)C1CCCC1 | -3.13
* COc1cccc(-c2ncc(CN3CCOCC(O)C3)s2)c1 (stereo not drawn) | 2.77
* CC(=O)N1CCC(c2ncc(C(=O)Nc3ccccc3)c(C)n2)CC1 | 25
* CC(C)(CNc1cccc(Cl)c1)NC(=O)C1CCCN(CC(N)=O)C1 (stereo not drawn) | 40.1
* Cc1nn(C)c(C)c1C1COCCN1C(=O)CSC(C)(C)C (stereo not drawn) | -7.18
* Cc1c(NC(=O)CN2CCN(C3CCCC3)C(=O)C2)cnn1C | 2.4
* CCC(C)NC(=O)Nc1cccc(OCCCC#N)c1 (stereo not drawn) | -4.6
* FC(F)(F)c1cc(C2CCCN(Cc3cccnc3)C2)n[nH]1 (stereo not drawn) | 5.52
* Cc1sc(C(=O)N(C)S(C)(=O)=O)cc1-c1ccc(F)cc1 | -2.1
* Cc1cc(-c2cnc(N3CCCC3)nc2C(C)C)on1 | 16.6
* Clc1snnc1CN(Cc1cccs1)C1CC1 | 3.68
* CN(C)C(=O)c1ccc2c(c1)nc(N1CC[C@H](O)C1)n2C | 1.76
* Cc1noc(C)c1CCCNC(=O)Nc1cccc([S+](C)[O-])c1 (stereo not drawn) | 4.42
* COc1ccc(-c2cc3nc(CCNC(=O)CN(C)C)nn3cn2)cc1 | 15
* O=C(Nc1ccccc1OCCc1ccccn1)N1CCOCC1 | 10.6
* CCn1cnnc1CNC(=O)c1ccc(Br)cc1F | -10.5
* COC1CCN(c2ccc(F)cc2CN(C)CC(N)=O)CC1 | 5.84
* COCCC1CCCCN1C(=O)c1coc(COc2ccccc2F)n1 (stereo not drawn) | 12.2
* CC(C)N(CC(=O)Nc1cccc(C(=O)N(C)C)c1)C1CC1 | 1.38
* COC(=O)c1ncccc1N1CCC(C(O)c2ccccc2)CC1 (stereo not drawn) | 12.8
* Cc1cc(C2CCCN(Cc3noc(Cc4ccccc4)n3)C2)n[nH]1 (stereo not drawn) | 35
* Cc1n[nH]c(C)c1NC(=O)NCc1cc[nH]n1 | -7.26
* CC(=O)c1cnc(NCCN2CCCC(c3ccccc3)C2)nc1C (stereo not drawn) | -7.52
* COc1c(C)cnc(CN2CCn3c(nnc3C(C)C)C2)c1C | 22
* Cc1ncc2c(n1)CN(Cc1nc(-c3ccsc3)oc1C)CC2 | -40.6
* CC(C)Cc1nc(C[S+]([O-])CC(=O)NCc2ccccc2)no1 (stereo not drawn) | 0.747
* CN(CCCc1cnn(C)c1)Cc1cc2n(n1)CCCNC2 | -0.861
* Cn1cc(CN2CCS(=O)(=O)C(C)(C)C2)cn1 | 5.13
* CCN(Cc1cn(CC2CCNCC2)nn1)CC1CCCO1 (stereo not drawn) | 4.72
* CN1CCC(N(CCc2ccccc2)C(=O)COCC2CCCO2)CC1 (stereo not drawn) | -4.31
* O=C(CCn1ccnc1)N1CC[C@H](Oc2cccc(F)c2)[C@@H](O)CC1 | -2.81
* Cc1[nH]ccc1C(=O)N1CCCC(c2ccc(C(=O)O)cc2)C1 (stereo not drawn) | -0.307
* Cc1cccc(C2(CNC(=O)c3ccnc(N(C)C)c3)CCOCC2)c1 | -0.987
* COCCN1CCN(C(=O)C(c2cccc(F)c2)N(C)C)CC1 (stereo not drawn) | -5.71
* C=C(C)CN(CC)C(=O)Nc1ccccc1CN(C)C(C)=O | -1.91
* Cc1cc(N2CCC(n3cc(CN4CCNCC4)nn3)CC2)ccn1 | -7.65
* Cc1nn(C)cc1C(=O)N1CCCn2nc(CN3CC[C@H](F)C3)cc2C1 | 2.32
